details: Liquid; Capillary flow
REPORTED_METRIC: Critical pressure (kPa)
API: value field is a number in kPa; no unit string.

{"columns": ["COMPOUND", "READOUT_UNITS", "Critical pressure"],
 "data": [
  ["CC(C)C#N [2-methylpropanenitrile]", "kPa", 3672]
]}

Query string: I would be grateful if you could share the reported Critical pressure for COC(C)CO (centres undefined) [2-methoxy-1-propanol] .
Result string: 4310

Query string: Follow-up entry: C=C(C)CC(C)(C)C [2,4,4-trimethyl-1-pentene]
Result string: 2730

Query string: Also, Cc1ccc(C=O)cc1 [4-methylbenzaldehyde] please.
Result string: 3920

Query string: Same thing, different compound: COCCOCCOC [2,5,8-trioxanonane]
Result string: 2830

Query string: Input CNC(C)=O [N-methylacetamide]
Result string: 5090

Query string: Another compound to look at: COC(C)OC [3-methyl-2,4-dioxapentane]
Result string: 4300

Query string: Also check COC(=O)OC [dimethyl carbonate]
Result string: 4450

Query string: Repeat for the following compound: OCCOc1ccccc1 [2-phenoxyethanol]
Result string: 3860

Query string: And then c1cc[nH]c1 [pyrrole] , what is it?
Result string: 6300

Query string: Also check COCCC#N [3-methoxypropanenitrile]
Result string: 4040

Query string: Query CCCCCCCCOCCCCCCCC [dioctyl ether] next
Result string: 1446

Query string: Cool, now C1CCNCC1 [piperidine]
Result string: 4560

Query string: Then COCC(C)=O [1-methoxy-2-propanone] ?
Result string: 4210

Query string: And then C=CC(=O)OC [methyl propenoate] , what is it?
Result string: 3990

* * *

conditions: Liquid; Capillary flow
Measured Critical pressure values are reported for all entries that follow.
Kindly answer with a numeric value in kPa, unit omitted.

{"columns": ["COMPOUND", "Critical pressure (kPa)"],
 "data": [
  ["Cc1cccs1 [2-methylthiophene]", 4620],
  ["CN1CCCCC1 [N-methylpiperidine]", 3660],
  ["Sc1ccccc1 [benzenethiol]", 4650]
]}

Proceeding to the next compound to report its Critical pressure.
Query string: What does the data say about its Critical pressure? Entry: C=CC(=O)OCC [ethyl propenoate]
Result string: 3710

Reference for the values: the NIST ThermoML archive (doi:10.1021/acs.jced.8b00298)
